# Tested on: BT-549 breast
# test_protocol: NCI-60 one-dose screen, 48 h (100 = growth as untreated, 0 = no growth, -100 = all killed)
# experimental_parameters: 10 µM unless noted
The panel holds about 83,000 compounds, 20% with a hit somewhere; the sample as a whole holds those more often.
# reported growth; entries follow
Give the value, in units of %, as a plain number.

Check out these entries, answers already filled in.
{"columns": ["molecule", "reported_endpoint", "recorded_result"],
 "data": [
  ["COc1ccc(/C=C2\\CN(C(=O)C(Cl)Cl)C/C(=C\\c3ccc(OC)c(OC)c3)C2=O)cc1OC", "growth", -41],
  ["CN(C)CCCC1(c2ccc(F)cc2)OCc2cc(-c3csc4ccccc34)ccc21 (stereo not drawn)", "growth", 84.2],
  ["Nc1cc(-c2ccc(Cl)cc2)nn1-c1nnc(/C=C/c2ccco2)c(=O)[nH]1", "growth", 72]
]}

Data request: Name the recorded growth for `Cn1c2ccccc2c2c3c(c4c5cc(Br)ccc5n(C)c4c21)C(=O)N(O)C3=O` .
Data returned: 41.2

Data request: Data request, read-out growth, for `Fc1ccc(/C=C/[C@@H]2C[C@@H](F)CCO2)cc1`
Data returned: 100

Data request: Requested read-out: growth. Entry: `Clc1ccc(-c2nc(C(Cl)Cl)nc3cc(-c4ccccc4)nn23)cc1`
Data returned: 89

Data request: Item under review: C=C(C)[C@@H]1CC[C@]2(COC3CCCCO3)CC[C@]3(C)[C@H](CC[C@@H]4[C@@]5(C)C=C(C=O)C(=O)C(C)(C)[C@@H]5CC[C@]43C)[C@@H]12 (stereo partly drawn) . Reported growth?
Data returned: -58.5

Data request: Name the reported growth value associated with the molecule `O=C1/C(=C/c2ccccn2)SC(=S)N1N1CCOCC1`
Data returned: 99.9

Data request: Bench note: what growth did COc1ccc(C2[C@@H](Cl)C(=O)N2c2cc(OC)c(OC)c(OC)c2)cc1Cl (stereo partly drawn) show?
Data returned: -19.1

Data request: Report growth for `O=C(c1cccc(N2CCOCC2)n1)c1c[nH]c2ccccc12` please.
Data returned: 117

Data request: // returns reported growth for input `C[C@@H]1CN(c2cnc(C(=O)Nc3cc(F)cc4cccnc34)cn2)C[C@H](C)N1`
Data returned: 102

Data request: Quick check: growth of COc1ccc(C2CC(n3ccnc3)c3cc(OC)c(OC)c(OC)c32)cc1O (stereo not drawn) ?
Data returned: 90.4

Data request: Any idea what its growth is? The molecule is `Cc1nc2sc(C(=O)Nc3cccc4ccccc34)c(N)c2cc1C(=O)c1ccccc1`
Data returned: 15.2

Data request: Which growth value is on record for `COc1cc(/C=C/C(=O)c2cc(OC)c(OC)c(OC)c2)ccc1Oc1nc2c(c(=O)n(C)c(=O)n2C)n1C` ?
Data returned: -57.7

Data request: Could you tell me which growth is on file for `COc1ccc2c(c1)oc1c(C)c3c(c(C)c12)C(=O)N(CCOS(C)(=O)=O)C3=O` ?
Data returned: 90

Data request: May I ask what growth has been recorded for `N#Cc1nn(-c2cc(=O)[nH]c3ccc(Br)cc23)c(N)c1C#N` ?
Data returned: 85.1

Data request: Need growth, item `CCCCCc1ccc(S(=O)(=O)Nc2ccc3nc(N)oc3c2)cc1`
Data returned: 61.9

Data request: For the molecule shown here, `O=C(N/N=C/c1ccc(Cl)cc1)c1ccc(NC(=O)c2ccccn2)cc1` , give the reported growth.
Data returned: 62.7

This collection of values is drawn from PubChem BioAssay (NCI).
